observation_type: melting point

- COc1cccc(CNC(=O)c2nc3cnn(CCCc4ccccc4)c3c(=O)[nH]2)c1 [Example 243]: 138 to 140 °C
- CCOC(=O)Cc1ccc(OCc2csc3nc(C(=O)NCc4cccc(OC)c4)[nH]c(=O)c23)cc1 [Example 256]: 175 to 178 °C
- COc1cccc(CNC(=O)c2nc3ccc(CN4CCOCC4)cc3c(=O)[nH]2)c1 [Example 116]: 126 to 129 °C
- COc1cccc(CNC(=O)c2nc3ccc(Cl)cc3c(=O)[nH]2)c1 [Example 83]: 203 to 206 °C
- COc1cccc(CNC(=O)c2nc3ccc(I)cc3c(=O)[nH]2)c1 [Example 104]: 219 to 220 °C
- COc1cccc(CNC(=O)c2nc3cnn(CCOc4ccc(C(=O)O)cc4)c3c(=O)[nH]2)c1 [Example 250]: 230 to 231 °C
- COc1cccc(CNC(=O)c2nc3scc(COc4ccc(CC(=O)O)cc4)c3c(=O)[nH]2)c1 [Example 257]: 228 to 230 °C
- COc1cccc(CNC(=O)c2nc3ccc(N)cc3c(=O)[nH]2)c1 [Example 100]: 223 to 225 °C
- CCOC(=O)Cc1csc2nc(C(=O)NCc3cccc(OC)c3)[nH]c(=O)c12 [Example 251]: 169 to 171 °C
- COc1cc(CNC(=O)c2nc3cnn(CCCc4ccccc4)c3c(=O)[nH]2)ccc1F [Example 244]: 155 to 157 °C
